Assay: Volume of distribution at steady state in mouse at 2 mg/kg, iv and 10 mg/kg, po by LC-MS/MS analysis
Format: ADME, organism-based
Conditions: in vivo, read-out: Vdss
recorded.endpoint: Vd (L/kg)

Solved entries:
> print(dat)
                                   compound  recorded.endpoint  quantitative.result
1  Cc1cc(C)c(CNC(=O)c2cc(Br)cc(N(C)C3CCCC3)c2C)c(=O)[nH]1                 Vd                 0.97
2  CCN(c1cc(-c2ccc(CN3CCOCC3)cc2)cc(C(=O)NCc2c(C)cc(C)[nH]c2=O)c1C)C1CCOCC1 [TAZEMETOSTAT]                 Vd                    1
3  Cc1cc(C)c(CNC(=O)c2cc(-c3ccc(CN4CCOCC4)cc3)cc(N(C)C3CCCC3)c2C)c(=O)[nH]1                 Vd                 0.66

P. Cc1cc(C)c(CNC(=O)c2cc(Br)cc(N(C)C3CCOCC3)c2C)c(=O)[nH]1
Q. CCN(c1cc(Cl)cc(C(=O)NCc2c(C)cc(C)[nH]c2=O)c1C)C1CCOCC1
R. Cc1cc(C)c(CNC(=O)c2cc(-c3ccc(CN4CCOCC4)cc3)nc3c2cnn3C(C)C)c(=O)[nH]1
Form: Sort by [Vd] Order [ ascending ] Output spec: labels arranged per the requested ranking. Q, R, P

I. Cc1cc(C)c(CNC(=O)c2cc(-c3ccc(CN4CCOCC4)cc3)cc3c2cnn3C2CCCC2)c(=O)[nH]1
II. Cc1cc(C)c(CNC(=O)c2cc(-c3ccc4c(c3)OCCO4)nc3c2cnn3C(C)C)c(=O)[nH]1
Sort I and II by Vd descending and give the first. Lab note: record the label of whichever item you select. II
(II: 1.3 L/kg, I: 0.49 L/kg)

----------
Assay: AUC in mouse at 2 mg/kg, iv and 10 mg/kg, po by LC-MS/MS analysis
Format: ADME, organism-based
Conditions: in vivo
recorded.endpoint: AUC (ng·h/mL)

Illustrative cases are given below, each with its answer.
> print(dat)
                              record.smiles  unit.spec  quantitative.result
1  Cc1cc(C)c(CNC(=O)c2cc(-c3ccc4c(c3)OCCO4)nc3c2cnn3C(C)C)c(=O)[nH]1    ng·h/mL                  700
2  Cc1cc(C)c(CNC(=O)c2cc(-c3ccc(CN4CCOCC4)cc3)cc(N(C)C3CCCC3)c2C)c(=O)[nH]1    ng·h/mL                 2500
3  Cc1cc(C)c(CNC(=O)c2cc(-c3ccc(CN4CCOCC4)cc3)nc3c2cnn3C(C)C)c(=O)[nH]1    ng·h/mL                  950
4  Cc1cc(C)c(CNC(=O)c2cc(-c3ccc(CN4CCOCC4)cc3)cc3c2cnn3C2CCCC2)c(=O)[nH]1    ng·h/mL                 2900
5  Cc1cc(C)c(CNC(=O)c2cc(Br)cc(N(C)C3CCCC3)c2C)c(=O)[nH]1    ng·h/mL                   46
6  Cc1cc(C)c(CNC(=O)c2cc(Br)cc(N(C)C3CCOCC3)c2C)c(=O)[nH]1    ng·h/mL                  350

A. CCN(c1cc(-c2ccc(CN3CCOCC3)cc2)cc(C(=O)NCc2c(C)cc(C)[nH]c2=O)c1C)C1CCOCC1
B. CCN(c1cc(Cl)cc(C(=O)NCc2c(C)cc(C)[nH]c2=O)c1C)C1CCOCC1
Compare A and B and name the one whose reported AUC is smaller. Field: selected label. Fill in the label of the entry you choose. B
